Catalogue of compounds with associated IC50
Assay: Antiproliferative activity against human BGC823 cells after 48 hrs by MTT assay
Assay type: functional, cell-based
Details: BGC-823, 48 h

# chem smiles, IC50
rows = [
    ("CC(C)(O)CCC[C@@](C)(O)[C@H]1CC[C@]2(C)[C@@H]1[C@H](O)C[C@@H]1[C@@]3(C)CC[C@H](OC(=O)[C@H](CCCNC(=N)N)NC(=O)OC(C)(C)C)C(C)(C)[C@@H]3CC[C@]12C", "12 µM"),
]

CC[C@H](C)[C@H](N)C(=O)O[C@H]1CC[C@]2(C)[C@H]3C[C@@H](O)[C@@H]4[C@@H]([C@](C)(O)CCCC(C)(C)O)CC[C@@]4(C)[C@]3(C)CC[C@H]2C1(C)C yielded IC50 of 10 µM
